settings: in n-hexane, 308.15 K
Reported endpoint: solubility (mole fraction)

>>> val("Clc1ccccc1C(c1ccccc1)(c1ccccc1)n1ccnc1")
0.000383

---

conditions: in n-octanol, 298.15 K
Reported endpoint: solubility (mole fraction)

>>> val("Clc1ccccc1C(c1ccccc1)(c1ccccc1)n1ccnc1")
0.0249

---

details: in n-octanol, 313.15 K
Reported endpoint: solubility (mole fraction)

>>> val("Clc1ccccc1C(c1ccccc1)(c1ccccc1)n1ccnc1")
0.045
